Test: chemical genetic growth profiling, strain panel (AID 1159580);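 note: tested at 20 µM; growth read once vehicle control cultures reached saturation at 30 °C; 1 = growth at the plate median or of vehicle wells; lower values mean less growth of the strain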
Conditions: S. cerevisiae deletion strains, growth OD, locus YKL067W, strain YNK1, active compounds read low
Hit rate of the full screen: of about 5,500 compounds, about 2,000 (36%) were called active. Another 18% or so got no clear call; they are omitted. Some of the results follow.
Observable: normalized growth

So what's the measured normalized growth for this one? Cc1nc([N+](=O)[O-])cn1CC(=O)c1ccc(Cl)cc1
0.947 (inactive)

====

Experiment: chemical genetic growth profiling, strain panel (AID 1159580);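 note: tested at 20 µM; growth read once vehicle control cultures reached saturation at 30 °C; 1 = growth at the plate median or of vehicle wells; lower values mean less growth of the strain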
Details: S. cerevisiae deletion strains, growth OD, locus YML070W, strain DAK1
About 2,000 (36%) of roughly 5,500 compounds were called active. Not shown: some 18% with an inconclusive outcome. No stated cut-off is given here; in the data, active means normalized growth mostly below about 0.91 (no sharp cut-off); inconclusive means no clear call, values can overlap the other calls; inactive means mostly above about 0.92. This is one part of the list.
In this exercise, the only acceptable responses are t = active, f = inactive

The examples below pair each entry with its known result.
O=S(=O)(Nc1cc(-c2cccs2)nn1-c1ccc(I)cc1)c1cccc(F)c1	f
Cc1nc(C(F)(F)F)ccc1-c1nnc(SC(=O)c2ccc(Cl)cc2)o1	t

Entry Cc1oc(-c2ccc(Cl)cc2)cc1C(=O)N1CCN(c2ccc(C(F)(F)F)cn2)CC1 : call = ?
f

Entry N/C(=N/OC(=O)c1ccccc1Cl)c1ccc2nonc2c1 : call = ?
f

Entry N#C/C(=C\C=C\c1ccccc1)c1nc2ccccc2[nH]1 : call = ?
f

Entry Cc1ccc(C(=O)Nc2ccc3ccccc3n2)cc1 : call = ?
f

Entry O=S(=O)(Nc1ccc(-n2nc(C(F)(F)F)cc2-c2cccs2)cc1)c1ccc(F)cc1 : call = ?
f

Entry COc1cccc(C(=O)C(C#N)=C(SC)SC)c1 : call = ?
t

Entry Nc1ccc(N2CCN(c3ccc(C(F)(F)F)cn3)CC2)nc1 : call = ?
f

Taken from PubChem BioAssay AID1159580.
